Data credit: patent US20250221988A1

Test system: MOLM-13 cells
Test: Cell viability assay (CellTiter-Glo) in MOLM-13 cells
Assay type: cell-based
Conditions: Homo sapiens, MOLM-13, 72 h, read-out: MOLM-13 IC50 (nM)
Experimental: Cell Culture: RS4;11, MV4;11, MOLM-13 and other cells were cultured at 37° C. with 5% CO2 in RPMI 1640 or DMEM Medium supplemented with 10% fetal bovine serum. Cells were authenticated using the short tandem repeat (STR) assays. Mycoplasma test results were negative. Cell viability assays: Cells were seeded at a density of 5000 cells per well in 96-well assay plates and treated with test compounds following a 8-point or 12-point 3-fold serial dilution. […]
Item-by-item account of IC50
Measurement name: IC50

1. CC(C)n1cnc2cnc(-c3cn([C@H]4C[C@H](CNc5ccc6c(c5)C(=O)N(C5CCC(=O)NC5=O)C6=O)C4)nc3C3CC3)cc21 (stereo partly drawn) [GS-664] | > 1000 nM
2. CC(C)n1ncc2ccnc(-c3cn([C@H]4C[C@H](CNc5ccc6c(c5)C(=O)N(C5CCC(=O)NC5=O)C6=O)C4)nc3C3CC3)c21 (stereo partly drawn) [GS-661] | 10 to 100 nM
3. O=C1CCC(N2C(=O)c3ccc(NC[C@H]4C[C@H](n5cc(Cc6ccccc6)c(C6CC6)n5)C4)cc3C2=O)C(=O)N1 (stereo partly drawn) [GS-735] | 10 to 100 nM
4. CN(C)c1nc(-c2cn([C@H]3C[C@H](CNc4ccc5c(c4)C(=O)N(C4CCC(=O)NC4=O)C5=O)C3)nc2C2CC2)ccc1F (stereo partly drawn) [GS-707] | 10 to 100 nM
5. O=C1CCC(N2C(=O)c3ccc(NC[C@H]4C[C@H](n5cc6ccccc6n5)C4)cc3C2=O)C(=O)N1 (stereo partly drawn) [GS-727] | > 1000 nM
6. CC(C)n1ncc2c(-c3cn([C@H]4C[C@H](CNc5ccc6c(c5)C(=O)N(C5CCC(=O)NC5=O)C6=O)C4)nc3C3CC3)ncc(F)c21 (stereo partly drawn) [GS-791] | 10 to 100 nM

* * *

System: MOLM-13 cells
Assay: Cell viability assay (CellTiter-Glo) in MOLM-13 cells
Type: cell-based
Details: Homo sapiens, MOLM-13, 72 h, read-out: MOLM-13 IC50 (nM)
Protocol: Cell Culture: RS4;11, MV4;11, MOLM-13 and other cells were cultured at 37° C. with 5% CO2 in RPMI 1640 or DMEM Medium supplemented with 10% fetal bovine serum. Cells were authenticated using the short tandem repeat (STR) assays. Mycoplasma test results were negative. Cell viability assays: Cells were seeded at a density of 5000 cells per well in 96-well assay plates and treated with test compounds following a 8-point or 12-point 3-fold serial dilution. […]
Item-by-item account of IC50
Measurement name: IC50

1) O=C1CCC(N2C(=O)c3ccc(NC[C@H]4C[C@H](n5cc(-c6cccc(N7CCC7)c6)c(C6CC6)n5)C4)cc3C2=O)C(=O)N1 (stereo partly drawn) [GS-653] | > 1000 nM
2) O=C1CCC(N2Cc3ccc(CC[C@H]4C[C@H](n5cc(-c6cnc7ccccc7n6)c(C6CC6)n5)C4)cc3C2=O)C(=O)N1 (stereo partly drawn) [GS-725] | > 1000 nM
3) O=C1CCC(N2C(=O)c3ccc(NC[C@H]4C[C@H](n5cc(Nc6ccncc6)c(C6CC6)n5)C4)cc3C2=O)C(=O)N1 (stereo partly drawn) [GS-671] | > 1000 nM
